Quick reference: self-cleavage of the listed items.
B1: Hairpin Ribozyme (parent)
chain: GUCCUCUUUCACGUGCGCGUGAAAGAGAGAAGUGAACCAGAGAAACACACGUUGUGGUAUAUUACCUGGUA

- Variants of: B1
- EXPERIMENT NOTES: self-cleavage, relative activity (ratio to wild type); higher = more cleavage; co-transcriptional

CONSTRUCT SEQUENCE	self-cleavage
GUCCUCUUUCACGUGCGCGUGAAAGAGAGAAGAGAACCAGAAAAACACACGUUGUGGUAUAUUACCUGGUA [U33A G42A]	0.168
GUCCUCUUUCACGUGAGCGUGAAAGAGAGAAGUGAACCAGAGAAACACACGUUGUGGUAUCUUACCUGGUA [C16A A61C]	0.359
GUCCUCUUUCACGUGCGCGUGCAAGAGAGAAGUGAACCAGAGAAACACACGUUGUGGUAUAUUACCUGGAA [A22C U70A]	0.862
GGCCUCUUUCACGUGCGCGUGAAAGAGAGAAGUGAACCAGAGAAACACACGUUGUGGUAUAUUUCCUGGUA [U2G A64U]	0.0768
GUCCUCUUUCACGUACGCGUGAAAGAGAGAAGUGAAACAGAGAAACACACGUUGUGGUAUAUUACCUGGUA [G15A C37A]	0.388
GUCCUCUUUCACGUGCGCGUGAAAGAGAGAAGUGAACCAGAGAAACACACGCUUUGGUAUAUUACCUGGUA [U52C G54U]	0.327
GUCCUCUUUCACGUGCGCCUGAAAGAGAGAAGUGAACCAGAGCAACACACGUUGUGGUAUAUUACCUGGUA [G19C A43C]	0.11
GACCACUUUCACGUGCGCGUGAAAGAGAGAAGUGAACCAGAGAAACACACGUUGUGGUAUAUUACCUGGUA [U2A U5A]	0.137
GUCCUCUUUCACGUGCGCGUGAAAGAGAGAAGUGAACCGGAUAAACACACGUUGUGGUAUAUUACCUGGUA [A39G G42U]	0.107
GUCCUCUUUAACGUGCGCGUGAAAGAGAGAAGUGAACCAGAGAAACACACGUUGUGGUAGAUUACCUGGUA [C10A U60G]	0.377
GUCCUCUUUCACGUGCGCGUGAAAAAGAGAAGUGAACGAGAGAAACACACGUUGUGGUAUAUUACCUGGUA [G25A C38G]	0.252
GUCCUCUUUCACGUGCGCGUGAAAGAGAGAAGUGAACCAGAGAAACACACGUGGUGGUAUAUUACCUGGGA [U53G U70G]	0.848
GUCCUCUUUCACGUGCGCGUGAAAGAGAGUAGUGAACCAGAGAAACCCACGUUGUGGUAUAUUACCUGGUA [A30U A47C]	0.0639
GUCCUCUUUCACGUGCGCGUGAAAGAGAGUAGUGAACCAGAGAAACACACGUUGUAGUAUAUUACCUGGUA [A30U G56A]	0.127
GUCCUCUUUCACGUGCGCGUGAAAGAGAGAAGUUAACCAGAGAAACACACGUUGUGGUAUAUUACCUGGUG [G34U A71G]	1.58
GUCCUCUUUCACGUGCGAGUGAAAGAGAGAAGUGAAUCAGAGAAACACACGUUGUGGUAUAUUACCUGGUA [C18A C37U]	0.64
GUCCUCUUUCACGUGCGCGUGAAAGAGAGAAGUGAACCAGAUAAACACACGUUGUGGUAUAUUAGCUGGUA [G42U C65G]	0.209
GUCCUCUUUCACGUGCGAGUGAAAGAGAGAAGUGAACCAGAGAAACACACGUUGUGGUUUAUUACCUGGUA [C18A A59U]	0.242
GUCCUCUUUCACGUGCGCGUGAAAGAGAGAAGUGAACCAGAGAAACACACGUUGUGGUAUAUUACAUGUUA [C66A G69U]	0.156
GUCCUCUUUCACGUUCGCGUGAAAGAGAGAAGUGAACCAGAGAAACACACGUUGUGGUAUAUUACCUGAUA [G15U G69A]	0.448
GUCCUCUUUCACGUGCGCGGGAAAGAGAGAAGUGAACCAGAGAAACACUCGUUGUGGUAUAUUACCUGGUA [U20G A49U]	0.148
GUCCUCUUUCACGUGCGAGUGAAAGAGAGAAGUGAACCAGAGAAACACACGUUGUGGUAUACUACCUGGUA [C18A U62C]	0.22

Values compiled from the RNAGym collection of RNA variant scans (doi:10.7554/elife.80360).
